- Tested on: NCI-H358 cells (K-Ras G12C)
- test-summary: CellTiter-Glo cell viability, NCI-H358
- Assay type: cell-based, human
- experimental-context: Homo sapiens, NCI-H358, 120 h, K-Ras G12C, 5-day treatment; read-out: H358 Cell Viability IC50
pIC50: −log10 of the molar value.
parameter: pIC50

Consider the following items and state reported pIC50 for each.
1. CCn1c(-c2cccnc2[C@H](C)OC)c2c3cc(ccc31)-c1cc(O)cc(c1)C[C@H](NC(=O)[C@H](C(C)C)N(C)C(=O)[C@@H]1[C@@H]3CNC[C@@H]31)C(=O)N1CCC[C@H](N1)C(=O)OCC(C)(C)C2 [Compound A164]
2. CCn1c(-c2cccnc2[C@H](C)OC)c2c3cc(ccc31)-c1csc(n1)C[C@H](NC(=O)[C@H](C(C)C)N(C)C(=O)N1CCN3C(=O)CN(C)C[C@@H]3C1)C(=O)N1CCC[C@H](N1)C(=O)OCC(C)(C)C2 [Compound A536]
3. CCn1c(-c2cccnc2[C@H](C)OC)c2c3cc(ccc31)-c1cc(O)cc(c1)C[C@H](NC(=O)[C@H](C(C)C)N(C)C(=O)C1CC(C)C1)C(=O)N1CCC[C@H](N1)C(=O)OCC(C)(C)C2 (stereo partly shown) [Compound A384]
4. CCn1c(-c2cnccc2COC)c2c3cc(ccc31)-c1cc(O)cc(c1)C[C@H](NC(=O)[C@H](C(C)C)N(C)C(=O)[C@H]1CCN(C3CCOCC3)C1)C(=O)N1CCC[C@H](N1)C(=O)OCC(C)(C)C2 [Compound A45]

[out]
1. 7.00 to 8.00
2. > 8.00
3. 6.00 to 7.00
4. 5.00 to 6.00

Values were extracted from patent US20250195521A1.
